Tested on: U-251
Run description: NCI tumour cell line growth inhibition, 48 h
Activity calls are given as the source filed them. No stated cut-off is given here; in the data, active = GI50 up to about 1.1 µM and inactive = higher. Where a SMILES comes first, the peptide text is derived from it. The star is where a group is joined. ONb = O=[N+]([O-])c1ccc(CO*)cc1; Boc = CC(C)(C)OC(=O)*
Measured attribute: GI50

Determine from records and report GI50 for "CCOC(=O)/C(C#N)=C/c1[nH]c(C(=O)OCc2ccccc2)c(C)c1C"
> 100 µM (inactive)

Write down GI50 measured for item COc1ccc(C2N(c3ccc(C)c(N=C=O)c3)C(=O)N3C(c4ccc(OC)cc4)N(c4ccc(C)c(N=C=O)c4)C(=O)N23)cc1 (stereo unspecified)
> 100 µM (inactive)

Provide GI50 value for the following compound: "CCN(CC)C(=S)SS(=O)(=O)c1ccc([N+](=O)[O-])cc1"
14.5 µM (inactive)

Please give measured GI50 of the following entry: COc1cc(C2(c3ncc[nH]3)SSSCC2O)ccc1O (stereo unspecified)
> 56.2 µM (inactive)

Tell me its GI50 given "CC#CC(=O)SCCNC(=O)CC" as the entry.
> 10 µM (inactive)

Consider the compound "O=C1C(NS(=O)(=O)c2ccccc2)=C(n2cnc3ccccc32)C(=O)c2ccccc21" and give its recorded GI50.
46.1 µM (inactive)

For the compound C=C1C(=O)OC2/C=C(\CO)C3OC3C3OC3(C)CC(OC(=O)/C(=C/C)COC(C)=O)C12 (stereo unspecified) , give its reported GI50.
5 µM (inactive)

Return value of GI50 for input "O=c1ccn2n1CCCCC2" , no commentary.
> 100 µM (inactive)

Provide measured GI50 value, entry: Cc1cc(O)c2c(c1)C(=O)C(c1c(C)cc3c(c1O)C(=O)C1OC1C3=O)=CC2=O (stereo unspecified)
6.9 µM (inactive)

Name the recorded GI50 of the item "CCOC(=O)NC(Nc1cccc(C(F)(F)F)c1)(C(F)(F)F)C(F)(F)F" in your answer.
> 100 µM (inactive)

Item CC(C)CC(NC(=O)OC(C)(C)C)C(=O)NC(CCC(=O)OCc1ccc([N+](=O)[O-])cc1)C(=O)OCc1ccc([N+](=O)[O-])cc1 (stereo not drawn) (Boc-Leu-Glu(ONb)-ONb; configuration not given here) : provide GI50
27.6 µM (inactive)

Quote GI50 reported for CC1(C)CC2=NC(SSC3=C(C#N)C(c4ccc(Br)cc4)C4=C(O)CC(C)(C)CC4=N3)=C(C#N)C(c3ccc(Br)cc3)C2=C(O)C1 (stereo unspecified) please.
> 100 µM (inactive)

Recall and state the measured GI50 for O=C1OC(O)C(Oc2c(Cl)cccc2Cl)=C1Cl (stereo unspecified) .
13.8 µM (inactive)

Provide one value: measured GI50 of COC(=O)C1CCC(=O)N1C(=O)Cc1ccc(OC)cc1 (stereo unspecified)
> 100 µM (inactive)

Please give the documented GI50 of C=C1CC2CC(O)CC(C1)C2 (stereo unspecified)
> 100 µM (inactive)

Output GI50 of CC1(CO)OC1COCc1ccccc1 (stereo unspecified)
> 100 µM (inactive)

Please report the measured GI50 for "CO/C=C1\OC(=O)C=C1OC"
> 31.6 µM (inactive)

Give the value of GI50 reported for the following: COc1ccc(C2C(Cl)C(=O)N2NC(=O)c2ccccc2O)cc1 (stereo unspecified)
> 100 µM (inactive)

Recall and state the measured GI50 for "CC1(C)CC(=O)c2c(oc3cc(O)c(O)cc23)C1" .
33 µM (inactive)

Supply recorded GI50 for COc1ccc(C(O)c2ccc3c(c2)OCO3)cc1 (stereo unspecified) here.
> 100 µM (inactive)

Input "Cc1oc2c(c1C)S(=O)(=O)C(C#N)=C(c1ccccc1)N2" , output reported GI50.
> 100 µM (inactive)
